Percent Effect values for the compounds below.
# Species on record: Homo sapiens
# test.protocol: To identify inhibition of the IFN signalling (Jak-Stat) pathway via expression of an eGFP reporter gene under the control of an IFN-stimulated response element (ISRE) containing MxA promoter.
# Format: functional
# Set-up: scale not given: direction of the effect not stated beside the values
# experimental.setup: 30 µM

{"compound": "COCC(NC(=O)c1ccc[nH]1)c1cccc(C(F)(F)F)c1 (centres undefined)", "Percent Effect": "3.46%"}

compound "CC1CCN(CCNC(=O)C2CCN(S(N)(=O)=O)CC2)CC1" , Percent Effect observed: 3.48%

compound "CN(C)C(=O)N1C[C@@H]2CC[C@H](C1)N(Cc1ccc3nsnc3c1)C2" , Percent Effect observed: -11.8%

compound Cc1ccc(S(=O)(=O)NC2CNC(=O)C2)cc1C (centres undefined) , Percent Effect observed: -1.25%

compound "CC1(C)CC(N2Cc3nc(N4CCOCC4)ncc3C2=O)CC(C)(C)N1" , Percent Effect observed: 13.3%

compound "O=C(c1ccc(Br)s1)N1CCN(Cc2ccc(OC(F)(F)F)cc2)CC1" , Percent Effect observed: 8.24%

compound Cc1cn2c(n1)CCC(NC(=O)CCn1ccnn1)C2 (centres undefined) , Percent Effect observed: -2.68%

compound "Cc1cccc(-c2nc(CN3CCc4c(ncn4C)C3)no2)c1" , Percent Effect observed: 21.7%

compound "O=C(Nc1nc2c(s1)CCC2)c1cccnc1N1CCOCC1" , Percent Effect observed: 2.75%
